System: P388 leukemia ip, CD2F1 mice, survival T/C
Assay: NCI In Vivo Anticancer Drug Screen. Data for tumor model P388 Leukemia (intraperitoneal) in CD2F1 (CDF1) mice
Settings: endpoint: median survival time; dose: 100.0 mg/kg/injection; schedule: Q01DX005 (ip); vehicle: Klucel (hydroxypropylcellulose) (HPC); higher = longer survival
Toxic doses and inconclusive results are not listed.
MEASURED ATTRIBUTE: T/C

These solved cases illustrate the format of a correct answer.
> print(dat)
                                   compound       assay.value
1  COc1ccc(/C=C/C(=O)c2ccccc(=O)c2O)c(OC)c1  105 % of control
2  COc1c(Br)c2c(c([N+](=O)[O-])c1OC)C(=O)OC2   96 % of control

Provide reported T/C for each item, in the same order as listed.
1. O=C(O)C1NCCC1Oc1ccccc1 (stereo unspecified)
2. COP(=O)(OC)C1c2ccccc2-c2cccc(C(=O)O)c21 (stereo unspecified)
3. CC(C)Cn1c(C(C)C)nc([N+](=O)[O-])c1Sc1ncn[nH]1
4. Cc1ccc(O)c(C(=NCCCCN=C(c2ccccc2)c2cc(C)ccc2O)c2ccccc2)c1.[Ni]

["104 % of control", "106 % of control", "123 % of control", "103 % of control"]
